Test system: OVCAR-5
test.details: NCI tumour cell line growth inhibition, 48 h
Calls of active or inactive are those of the source. Cut-off read from the data, not from the text of the source: active = GI50 up to about 1.1 µM and inactive = higher.
Entries and their GI50

- smi: "O=C1C=C(Br)c2c(Br)sc(Br)c21"
  GI50: "19.1 µM (inactive)"
- smi: "O=C(CCC1CCCCC1)NCc1ccc(C(=O)O)cc1"
  GI50: "> 100 µM (inactive)"
- smi: "CC1=C2C(=O)NN=C2CCN1c1ccc(Br)cc1"
  GI50: "> 100 µM (inactive)"

----------
Test system: HCT-116
test.details: NCI tumour cell line growth inhibition, 48 h
The source made the active and inactive calls. Cut-off read from the data, not from the text of the source: active = GI50 up to about 1.1 µM and inactive = higher.
Labels: label 1 = active, label 0 = inactive

- compound: "Cc1cc(C)c(C)c(-n2[nH]c(=O)n(C)c2=O)c1C"
  label: "label 0"
- compound: "O=c1c2cccnc2ncn1CCCN1CCCC1"
  label: "label 0"
- compound: "O=c1c2ccccc2sc2nc(CCl)nn12"
  label: "label 0"
- compound: "CC(=O)O[C@@H]1CO[C@H]2O[C@H]3[C@@H](C(C=O)=C[C@H](O)[C@@H]4C5=C(C(C)C)CC[C@]5(C)CC[C@@]34C)[C@@]2(O)C1=O [STRIATIN E]"
  label: "label 1"
- compound: "O=C(CC(C(=O)c1cccs1)c1ccsc1)c1ccc(Cl)cc1 (stereo unspecified)"
  label: "label 0"
- compound: "CCCCCCCCCCCC(=O)OC(COC(N)=O)COc1ccc(Cl)cc1 (stereo unspecified)"
  label: "label 0"
- compound: "CCCCCCCCCCCCCCCC(=O)Nc1ccn(C2CCC(COP(=O)(O)OCC3OC(n4cc(F)c(=O)[nH]c4=O)CC3OC(C)=O)O2)c(=O)n1 (stereo unspecified)"
  label: "label 0"
- compound: "C[C@@]1(CCCCCCCCCCc2ccccc2)C[C@@]2(C)OC(=O)C[C@H]2OO1"
  label: "label 0"
- compound: "C/C=C/C=C/c1nc(C#N)c(N)o1"
  label: "label 0"
- compound: "O=C(COC(=O)c1cccc2c(=O)c3ccccc3[nH]c12)Nc1ccc(S(=O)(=O)Nc2ncccn2)cc1"
  label: "label 0"
- compound: "c1ccc(/N=C2\\SC(c3ccccc3)CN2C23CC4CC(CC(C4)C2)C3)cc1 (stereo unspecified)"
  label: "label 0"
- compound: "CN1C(=O)C(CC(=O)O)NC1=S (stereo unspecified)"
  label: "label 0"
- compound: "COC1C(N(C)C)=C(c2ccccc2)C(=O)N2CCc3ccccc3C12 (stereo unspecified)"
  label: "label 0"
- compound: "CC1=C2C(=O)NN=C2CCN1c1ccc(Br)cc1"
  label: "label 0"
- compound: "O=c1c2c(c1=O)C1(SCCCS1)c1cc(Cl)ccc1O2"
  label: "label 0"
- compound: "Cc1ccc(Nc2nc(C)c(C(=O)CC(=O)C(=O)Nc3c(C)cccc3C(C)(C)C)s2)cc1"
  label: "label 0"
- compound: "CN(C)Cc1cc(C(=O)/C=C/c2ccc(O)cc2)cc(CN(C)C)c1O"
  label: "label 0"
- compound: "O=C(/C=C/c1ccccc1)c1cc(CN2CCOCC2)c(O)c(CN2CCOCC2)c1"
  label: "label 0"
- compound: "CN[C@@H](C)[C@H](NC)c1ccccc1"
  label: "label 0"
- compound: "CC(NNC(=O)c1cc[n+]([BH2-]C#N)cc1)c1ccccc1F (stereo unspecified)"
  label: "label 0"
- compound: "O=c1[nH]c(=O)n(C2CC(O)C(O)C(CO)O2)cc1F (stereo unspecified)"
  label: "label 0"
- compound: "Nn1c(Cc2ccc([N+](=O)[O-])cc2)n[nH]c1=O"
  label: "label 0"
- compound: "CSc1ccc(/C=C/C(=O)c2nc3ccccc3[nH]2)cc1"
  label: "label 0"
- compound: "O=c1ccc2nc3cc(Br)ccc3sc-2c1"
  label: "label 0"
- compound: "CC1(C)C=N[N+]2(C)C3C=CC(CC3)C12 (stereo unspecified)"
  label: "label 0"
- compound: "COc1cc(C2c3cc4c(cc3OC(NN)C2C)OCO4)cc(OC)c1O (stereo unspecified)"
  label: "label 0"

----------
Tested on: CAKI-1
test.details: NCI tumour cell line growth inhibition, 48 h
The source made the active and inactive calls. Rule as the data show it: active = GI50 up to about 1.1 µM and inactive = higher.
Outcomes: YES (active), NO (inactive)

- compound: "O=C(/C=C/c1ccccc1)c1cc(CN2CCOCC2)c(O)c(CN2CCOCC2)c1"
  label: "NO"
- compound: "N#CC(=C1C=CC(=NO)C=C1)c1ccc(Cl)cc1"
  label: "NO"
- compound: "CC(C)(C)N1CC1CNC(=O)C(=O)NCC1CN1C(C)(C)C (centres undefined)"
  label: "NO"
- compound: "O=c1c2ccccc2sc2nc(CCl)nn12"
  label: "NO"
- compound: "Nc1ccc2c(c1)CN1C(=O)c3ccccc3C1=N2 [DANIQUIDONE]"
  label: "NO"
- compound: "Cc1cccc(C(C)C)c1NC(=O)CC1Sc2ccccc2NC1=O (centres undefined)"
  label: "NO"
- compound: "COc1ccc([Se]c2ccc(OC)cc2OC)c(OC)c1"
  label: "NO"
- compound: "CN(C)CCCNc1cc(O)c2c(c1O)C(=O)c1ccccc1C2=O"
  label: "NO"
- compound: "COC(=O)c1c(O)ccc2c1c1c(n2Cc2ccccn2)C(=O)c2ccccc2C1"
  label: "NO"
- compound: "C=C(C)[C@@H]1CCC2=C[C@H](OC2=O)[C@@]2(C)C[C@@H]2C(=O)/C=C(/C)C(=O)[C@H]1OC(C)=O"
  label: "NO"
- compound: "COc1cc(/C=N/N=C(\\N)NO)c(Cl)cc1O"
  label: "NO"
- compound: "CCC(=O)NC(Nc1cccc(F)c1C)(C(F)(F)F)C(F)(F)F"
  label: "NO"
- compound: "CC1OC(OC2C(O)COC(OC3C(C)OC(OC4C(OC(=O)[C@]56CCC(C)(C)C[C@@H]5C5=CCC7[C@@]8(C)C[C@H](O)[C@H](OC9OC(CO)C(O)C(OC%10OC(CO)C(O)C(O)C%10O)C9O)[C@@](C)(CO)[C@@H]8CC[C@@]7(C)[C@]5(C)CC6)OCC(O)C4O)C(O)C3OC3OCC(O)C(O)C3O)C2O)C(O)C(O)C1O (some centres undefined)"
  label: "NO"
- compound: "Cc1ccc(/N=N/c2ccc(N)cc2C)c(S(N)(=O)=O)c1"
  label: "NO"
- compound: "C[C@@H](c1ccccc1)C(CC#N)[C@H]1CCC[C@]1(O)C#Cc1ccc2c(c1)OCO2 (some centres undefined)"
  label: "NO"
- compound: "O=c1[nH]nc(Cc2ccccc2)n1C1CC1"
  label: "NO"
- compound: "C/C=C/C=C/c1nc(C#N)c(N)o1"
  label: "NO"
- compound: "Cc1c(S(=O)(=O)c2ccccc2)c(N)n(Cc2ccccc2)c1C"
  label: "NO"
- compound: "O=C1CCCC2C3CC(CN12)C1CCCCN1C3.[O-][Cl+3]([O-])([O-])O (centres undefined)"
  label: "NO"
- compound: "COC(=O)c1ccc(CCc2cc(O)c(Br)cc2O)cc1"
  label: "NO"
- compound: "COc1ccc(NC(=O)CC(=O)n2nc(-c3ccccc3)c(/N=N/c3ccccc3C)c2-c2ccccc2)cc1"
  label: "NO"
- compound: "O=C(O)CC(NC(=O)/C(=C/c1ccccc1)NC(=O)c1ccccc1)C(=O)O (centres undefined)"
  label: "NO"
- compound: "COc1cc(C2C3=C(CCCC3=O)N(c3ccc(C)cc3)C3=C2C(=O)CCC3)c([N+](=O)[O-])cc1OC"
  label: "NO"
- compound: "COc1ccc(-c2oc3c(OC)c(OC)c(OC)c(O)c3c(=O)c2OC)cc1O"
  label: "YES"

----------
System: U-251
test.details: NCI tumour cell line growth inhibition, 48 h
Activity calls are given as the source filed them. Rule as the data show it: active = GI50 up to about 1.1 µM and inactive = higher.
Possible outcomes: active, inactive

- compound: "CC(=O)O[C@]12CCCCC1C1(O)C(O)CCCCC12 (stereo partly drawn)"
  target.under.test: "U-251"
  label: "inactive"
- compound: "CCOC(=O)C(CS)NC(=O)CCCCCCCC(=O)NC(CS)C(=O)OCC (stereo not drawn)"
  target.under.test: "U-251"
  label: "inactive"
- compound: "CC1=C(C)SC(=C2Sc3c(n(C)c(=O)[nH]c3=O)S2)S1"
  target.under.test: "U-251"
  label: "inactive"
- compound: "O[C@@]12Cc3c([nH]c4ccccc34)[C@@H]3Oc4c(-c5ccccc5)ccc5c4[C@@]31CCN(CC1CC1)[C@@H]2C5"
  target.under.test: "U-251"
  label: "inactive"
- compound: "NNC(=O)c1cc(Cl)ccc1NC(=O)C12CC3CC(CC(C3)C1)C2"
  target.under.test: "U-251"
  label: "inactive"
- compound: "O=C1c2ccccc2-c2[nH]c3cn[nH]c(=O)c3c21"
  target.under.test: "U-251"
  label: "inactive"
- compound: "Nc1ccc2c(c1)CN1C(=O)c3ccccc3C1=N2"
  target.under.test: "U-251"
  label: "inactive"
- compound: "C=CCOC(=O)N1c2ccc(O)cc2[C@@]23O[C@@]24[C@@H]1C#C/C=C\\C#C[C@]3(O)C(OC)(OC)C[C@@H]4C"
  target.under.test: "U-251"
  label: "inactive"
- compound: "O=[N+]([O-])/C(C(Cl)=C(Cl)Cl)=C(\\N1CCCCC1)n1nnc2ccccc21"
  target.under.test: "U-251"
  label: "inactive"
- compound: "COc1c(C)c2c(c(O)c1C/C=C(\\C)CCC(=O)O)C(=O)OC2"
  target.under.test: "U-251"
  label: "active"
- compound: "c1cncc(CNCCN2CCNCC2)c1"
  target.under.test: "U-251"
  label: "inactive"
- compound: "CN(C)/C(=N\\C#N)NCc1ccccc1"
  target.under.test: "U-251"
  label: "inactive"
- compound: "c1cc(CSc2ncnc3[nH]cnc23)ccn1"
  target.under.test: "U-251"
  label: "inactive"
- compound: "Cc1cc(C)cc(NC(=O)CCC(=O)C2CCC/C2=N\\NC(=O)C(=O)NN)c1 (stereo not drawn)"
  target.under.test: "U-251"
  label: "inactive"
- compound: "COC(=O)C1=CSC2(S1)C(C(=O)OC)=CSc1c2ss/c1=N\\c1ccccc1 (stereo not drawn)"
  target.under.test: "U-251"
  label: "inactive"
- compound: "Nc1nc(Cl)nc2c1ncn2C1CCC(CO)O1 (stereo not drawn)"
  target.under.test: "U-251"
  label: "inactive"
- compound: "COc1cc(C2C(Cl)C(=O)N2n2cnc3ccccc3c2=O)ccc1O (stereo not drawn)"
  target.under.test: "U-251"
  label: "inactive"
- compound: "Nc1ncnc2c1ncn2C1C=CC(CP(=O)(O)O)C1 (stereo not drawn)"
  target.under.test: "U-251"
  label: "inactive"
- compound: "COc1ccc(/C=c2/sc3n(c2=O)NC2(CCC(C)CC2)NN=3)cc1 (stereo not drawn)"
  target.under.test: "U-251"
  label: "inactive"
- compound: "CCCCn1/c(=N/C(=S)N(C)C)ss/c1=N\\C(=S)N(C)C"
  target.under.test: "U-251"
  label: "inactive"
- compound: "CC1(C)CN=C(Nc2ccc(Cl)cc2)S1"
  target.under.test: "U-251"
  label: "inactive"
- compound: "OC1(c2ccc(Cl)cc2)c2ccccc2C2=Nc3ccccc3CN21 (stereo not drawn)"
  target.under.test: "U-251"
  label: "inactive"
- compound: "CN(C)C(=S)N1C(=S)N(c2ccccc2)C(=N/c2ccccc2)/C1=N\\c1ccccc1"
  target.under.test: "U-251"
  label: "inactive"
- compound: "CCCCNC(=S)N/C=C1\\C(=O)Nc2ccccc2C1=O"
  target.under.test: "U-251"
  label: "inactive"
- compound: "O=c1c2ccccc2sc2nc(CCl)nn12"
  target.under.test: "U-251"
  label: "inactive"
- compound: "O=c1oc2ccccc2c2c1Sc1ccccc1N2"
  target.under.test: "U-251"
  label: "inactive"
- compound: "CC1=C(/C=C/C2=CC(=C\\C(=O)O)/CC(C3=C(C)CCCC3(C)C)C2)C(C)(C)CCC1 (stereo not drawn)"
  target.under.test: "U-251"
  label: "inactive"
- compound: "COC(=O)C(CNC(=O)/C=C/c1ccc(OC(C)=O)c(OC(C)=O)c1)NC(=O)/C=C/c1ccc(OC(C)=O)c(OC(C)=O)c1 (stereo not drawn)"
  target.under.test: "U-251"
  label: "inactive"
- compound: "CC(C)(C)N1CC1CNC(=O)C(=O)NCC1CN1C(C)(C)C (stereo not drawn)"
  target.under.test: "U-251"
  label: "inactive"
- compound: "O=C(O)CN1CCNCCNCC1"
  target.under.test: "U-251"
  label: "inactive"
- compound: "c1cc2nnc1SCCSCCCSCCS2"
  target.under.test: "U-251"
  label: "inactive"
- compound: "CCCCC(=O)c1c(O)nc2sccn2c1=O"
  target.under.test: "U-251"
  label: "inactive"
- compound: "CC(NCCN(C)C)C1CCC2C3CCc4cc(O)ccc4C3CCC12C (stereo not drawn)"
  target.under.test: "U-251"
  label: "inactive"
- compound: "O=C1O/C(=C(/Cl)c2c3ccccc3cc3ccccc23)c2ccccc21"
  target.under.test: "U-251"
  label: "inactive"
- compound: "Cc1ccc(Nc2nc(C)c(C(=O)CC(=O)C(=O)Nc3c(C)cccc3C(C)(C)C)s2)cc1"
  target.under.test: "U-251"
  label: "inactive"
- compound: "OCC(O)COCn1cc(Cn2ncc3c(O)ncnc32)nn1 (stereo not drawn)"
  target.under.test: "U-251"
  label: "inactive"
- compound: "Cc1c2c(n3c(nc4ccccc43)c1C#N)N(c1ccc(Cl)cc1)CC2"
  target.under.test: "U-251"
  label: "inactive"
- compound: "NC(Cc1ccc(OCc2ccccc2)cc1)C(=O)NC(Cc1ccccc1)C(=O)Oc1c(Cl)c(Cl)c(Cl)c(Cl)c1Cl (stereo not drawn)"
  target.under.test: "U-251"
  label: "inactive"
